System: L5178YMDR cells
Test: Combination assay with doxorubicin (checkerboard microplate method, MTT)
Format: cell-based, mouse
Conditions: drug ratio 185.6:1, with doxorubicin, (CI50 + 2CI75 + 3CI90)/6
measurement-name: CIavg (weighted average CI)
Enter a number only.

Kindly indicate its recorded CIavg (weighted average CI). Item: CC(=O)N[C@H]1CC[C@@]2(F)C3=CC(=O)[C@@H]4C[C@H]5OC(C)(C)O[C@H]5C[C@]4(C)[C@H]3CC[C@]12C [Compound 14] 1.25

Kindly indicate its recorded CIavg (weighted average CI). Item: CC(=O)[C@H]1CC=C2C3=CC(=O)[C@@H]4C[C@H]5OC(C)(C)O[C@H]5C[C@]4(C)[C@H]3CC[C@@]21C [Compound 10] 0.55

Kindly indicate its recorded CIavg (weighted average CI). Item: CC(=O)[C@H]1CC[C@@]2(F)C3=CC(=O)[C@@H]4C[C@H]5OC(C)(C)O[C@H]5C[C@]4(C)[C@H]3CC[C@]12C [Compound 11] 0.61

Kindly indicate its recorded CIavg (weighted average CI). Item: CC(=O)N[C@H]1CC=C2C3=CC(=O)[C@@H]4C[C@H]5OC(C)(C)O[C@H]5C[C@]4(C)[C@H]3CC[C@@]21C [Compound 13] 0.67
